Recorded measurements of INHIBITION, one per entry
tested on: Plasmodium berghei; experiment: Screen against P. berghei liver stage (PbLuc), transformed with Luciferase, at 10uM; assay type: functional, HepG2; details: tested at 10 uM
About 8,600 (12%) of roughly 69,000 compounds showed an effect of 50% or more. Shown is part of a subset that was picked to be rich in strong results.
Answer format reminder: number followed by unit.

The following compounds have reported results that may help.
[
  {
    "compound": "CN1CCN(C(=O)Cn2ccc3c(Cl)cccc32)CC1",
    "INHIBITION": "-13.6%"
  },
  {
    "compound": "CNC(=O)CNC(=O)c1ccc(-c2scnc2C)nc1",
    "INHIBITION": "-89.4%"
  },
  {
    "compound": "CCS(=O)(=O)NCc1nc(C)cc(N2CCCCC2)n1",
    "INHIBITION": "75.2%"
  },
  {
    "compound": "CCCc1nc(C)cc(N2CCC3(CCC(=O)N(C4CC4)C3)CC2)n1",
    "INHIBITION": "-23.5%"
  },
  {
    "compound": "Cc1ncsc1C(=O)N(C)Cc1ccsc1",
    "INHIBITION": "-23.955%"
  }
]

Noted INHIBITION for `COC(C)(C)C(=O)N1CCC(c2cc(CN(C)C)n(C)n2)CC1` , tested on Plasmodium berghei: -42.1%

Entry `CCS(=O)(=O)NCc1nc(C)cc(N2CCOCC2)n1` , tested on Plasmodium berghei, has a reported INHIBITION of 65.2%

INHIBITION for Plasmodium berghei with input `COc1ncc(NCc2ccc(F)cc2)cc1C(N)=O` equals -5.1%

Entry `COc1ncc(NCc2ccc(C#N)cc2)cc1C(N)=O` , Plasmodium berghei data, INHIBITION value: 8.12%

The value of INHIBITION recorded for `Cn1ncc(NC(=O)Cn2cc(-c3ccc(F)cn3)cn2)n1` when tested on Plasmodium berghei reads 77.9%

Short answer on Plasmodium berghei for `Cc1cc(Br)ccc1C(=O)Nc1c(C(N)=O)n[nH]c1C` , INHIBITION: 3.87%
